assay details: NCI Yeast Anticancer Drug Screen. Data for the sgs1 mgt1 strain (AID 161);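 note: 0% = growth of cultures given vehicle only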
details: S. cerevisiae sgs1 mgt1 strain, at 50.0 µM, hits give high values
About 79,000 compounds went through this panel and 15% of them were active in at least one assay; those are over-represented in the sample as a whole.
Kindly return label 1 if reported growth inhibition is no lower than 90%; return label 0 if it is lower.

molecule | cat
Cc1ccc(S(=O)(=O)N/N=c2\c(C)c(C3=NS(=O)(=O)c4cc(S(N)(=O)=O)c(Cl)cc4N3)oc3c(Cl)cc(Cl)cc23)cc1 | label 0
N=c1n(CC(=O)NC23CC4CC(CC(C4)C2)C3)c2ccccc2n1CC(=O)NC12CC3CC(CC(C3)C1)C2 | label 0
CC(C)Nc1nc(NC(C)C)c2cnn(-c3ccccc3)c2n1 | label 1
Cc1ccc2c(c1)C(O)(c1ccccc1)C(c1ccccc1)C(c1ccccc1)O2 (stereo unspecified) | label 1
Cc1ccccc1N=Nc1sc(N)nc1-c1ccccc1 | label 0
CCNc1ccccc1C | label 1
COc1ccc(C(=O)[O][Sn]([c]2ccccc2)([c]2ccccc2)[c]2ccccc2)c(OC)c1OC | label 1
O=C(Nc1ccccc1)ON=C1CCCCC1 | label 1
CCC(CC)C(=O)O.[Ag] | label 1
Cc1nn(C(=O)c2ccccc2O)c2c1C(c1ccc([N+](=O)[O-])cc1)SC(N)=N2 (stereo unspecified) | label 0
CC(=O)Oc1c(C)cc([N+](=O)[O-])cc1[N+](=O)[O-] | label 1
CC1SC(c2ccc(Cl)cc2)N2C(=O)C(C)SC(c3ccc(Cl)cc3)N2C1=O (stereo unspecified) | label 0
O=S(=O)(C#Cc1ccccc1)c1ccccc1 | label 1
COc1ccc2ccccc2c1/C=C/C(=O)c1ccccc1 | label 0
O=C(CBr)c1cccc(OC(=O)c2ccccc2)c1 | label 0
CCOC(=O)C(Br)c1nc2ccccc2[nH]c1=O (stereo unspecified) | label 0
CCCCCNC(=O)c1ccc(Cl)c(Cl)c1 | label 0
O=C1OC(CC(=O)c2ccc(Cl)cc2Cl)C(Cl)=C1Cl (stereo unspecified) | label 1
Nc1ncnc2c1cnn2C1CCCCC1 | label 0
O=C(CCc1ccccc1)COC(=O)c1ccc([N+](=O)[O-])cc1 | label 0
N#CC1(C#N)C(C#N)(C#N)C12CCCCCC2 | label 1
COc1cc(/C=C2\CC(C)C/C(=C\c3ccc(O)c(OC)c3)C2=O)ccc1O (stereo unspecified) | label 0
OCC(c1ccccc1)c1ccccc1 | label 0
COc1ccc(SC2=C(N(C)C(C)=O)C(=O)c3ccccc3C2=O)cc1 | label 1
CCOC(=O)C(C)(C)C | label 0
COc1ccc2ccccc2c1Cc1c(OC)ccc2ccccc12 | label 0
CN(C)CC(C)(C)C(/C=C/c1ccccc1)=N\Nc1ccccc1 | label 1
O=C1c2ccccc2Cc2cc(O)ccc21 | label 0
O=C1c2ccccc2SCC12OC2c1ccc(Cl)cc1 (stereo unspecified) | label 1
COc1c([N+](=O)[O-])cc(-c2ccccc2)cc1[N+](=O)[O-] | label 0
C/C(=N\N(C)C(=S)Nc1ccccc1)c1ccccn1 | label 0
CC12CCC(=O)C=C1CCC1C2CCC2(C)C(C(=O)Cn3cnc4c(=S)nc[nH]c43)CCC12 (stereo unspecified) | label 0
O=C1/C(=C/c2cccc(O)c2)SC(=S)N1/C=C\c1nc2ccccc2[nH]c1=O | label 0
CCCc1cc2c(cc1COc1ccccc1C(=O)O)OCO2 | label 0
CC(/C=N/NS(=O)(=O)c1ccc(C)cc1)=C(c1ccccc1)c1ccccc1 | label 0
CC12CCC(O)CC1CCC1C2CCC2(C)C(NC(=O)N(CCCl)N=O)CCC12 (stereo unspecified) | label 1
C=Cc1cc(O)cc2c1-c1ccc(O)c(C)c1CC2 | label 1
O=C(CC(C(=O)O)c1c[nH]c2ccccc12)c1ccccc1 (stereo unspecified) | label 0
C/C(=N/NC(=S)Nc1ccc([N+](=O)[O-])cc1)c1cccc(/C(C)=N\NC(=S)Nc2ccc([N+](=O)[O-])cc2)n1 | label 0
Cc1c(Cl)c(Cl)cc([N+](=O)[O-])c1Cl | label 0
